SYSTEM: HLA-B*07 (Homo sapiens)
MEASUREMENT PROTOCOL: MHC binding assay (UV-ligand exchange, ELISA of stabilized MHC complexes)
ASSAY CONDITIONS: peptide exchange yield on HLA-B*07, UV-ligand exchange
ENDPOINT NAME: Peptide exchange

>>> df
                                  substance                   system  experimental_value
0  21 (APSRLLEL; listed as Homo sapiens) [compound 21]  HLA-B*07 (Homo sapiens)  ++++ (>75% = ++++)
1  195 (NPIFGRKEL; listed as Homo sapiens) [compound 195]  HLA-B*07 (Homo sapiens)     +++ (>50 = +++)
2  371 (APRSPGQVTPRGL; listed as Homo sapiens) [compound 371]  HLA-B*07 (Homo sapiens)     +++ (>50 = +++)
3  494 (LPLRAVNLNL; listed as Homo sapiens) [compound 494]  HLA-B*07 (Homo sapiens)     +++ (>50 = +++)
4  310 (SPGWAQTQL; listed as Homo sapiens) [compound 310]  HLA-B*07 (Homo sapiens)  ++++ (>75% = ++++)
5  482 (QPSLKKIIL; listed as Homo sapiens) [compound 482]  HLA-B*07 (Homo sapiens)  ++++ (>75% = ++++)
6  59 (KPRTIYSSL; listed as Homo sapiens) [compound 59]  HLA-B*07 (Homo sapiens)  ++++ (>75% = ++++)
7  273 (TDTPSTTPTTI; listed as Homo sapiens) [compound 273]  HLA-B*07 (Homo sapiens)      ++ (>20% = ++)
8  69 (RPEDGRPRL; listed as Homo sapiens) [compound 69]  HLA-B*07 (Homo sapiens)     +++ (>50 = +++)
9  38 (RPSFPNLTSF; listed as Homo sapiens) [compound 38]  HLA-B*07 (Homo sapiens)  ++++ (>75% = ++++)

Data point: 275 (IPAPQGAVL; listed as Homo sapiens) [compound 275] ; Peptide exchange = +++ (>50 = +++)

Data point: 156 (GSRPVTGSV; listed as Homo sapiens) [compound 156] ; Peptide exchange = +++ (>50 = +++)

Data point: 461 (MPHLGPGILL; listed as Homo sapiens) [compound 461] ; Peptide exchange = ++++ (>75% = ++++)

Data point: 250 (APAAPAAVPS; listed as Homo sapiens) [compound 250] ; Peptide exchange = ++ (>20% = ++)

Data point: 294 (VPKPAIPSSSVL; listed as Homo sapiens) [compound 294] ; Peptide exchange = ++++ (>75% = ++++)

Data point: 118 (NPERHKPSF; listed as Homo sapiens) [compound 118] ; Peptide exchange = +++ (>50 = +++)

Data point: 478 (APKFISPASQL; listed as Homo sapiens) [compound 478] ; Peptide exchange = ++++ (>75% = ++++)

Data point: 313 (VPLSSYVSI; listed as Homo sapiens) [compound 313] ; Peptide exchange = ++++ (>75% = ++++)

Data point: 110 (YPSSPASAV; listed as Homo sapiens) [compound 110] ; Peptide exchange = ++++ (>75% = ++++)

Data point: 251 (MPVDSFNSM; listed as Homo sapiens) [compound 251] ; Peptide exchange = ++++ (>75% = ++++)

Data point: 135 (MPRLLRLSL; listed as Homo sapiens) [compound 135] ; Peptide exchange = +++ (>50 = +++)

Data point: 210 (IPENRVVSY; listed as Homo sapiens) [compound 210] ; Peptide exchange = ++ (>20% = ++)

Data point: 337 (IPTSRVITL; listed as Homo sapiens) [compound 337] ; Peptide exchange = ++++ (>75% = ++++)

Data point: 78 (HPSQESPTL; listed as Homo sapiens) [compound 78] ; Peptide exchange = +++ (>50 = +++)

Data point: 193 (LPALKEEAF; listed as Homo sapiens) [compound 193] ; Peptide exchange = ++++ (>75% = ++++)

---

SYSTEM: HLA-B*07 (Homo sapiens, UniProt P01889)
MEASUREMENT PROTOCOL: MHC binding assay (UV-ligand exchange, ELISA of stabilized MHC complexes)
ASSAY CONDITIONS: peptide exchange yield on HLA-B*07, UV-ligand exchange
ENDPOINT NAME: Peptide exchange

                                  substance     endpoint_name  experimental_value
0  375 (LPRGVLEGL; listed as Homo sapiens) [compound 375]  Peptide exchange  ++++ (>75% = ++++)
1  56 (LPALLRSGLTL; listed as Homo sapiens) [compound 56]  Peptide exchange  ++++ (>75% = ++++)
2  474 (VPKADLLTL; listed as Homo sapiens) [compound 474]  Peptide exchange  ++++ (>75% = ++++)
3  348 (HPAPPVTSA; listed as Homo sapiens) [compound 348]  Peptide exchange     +++ (>50 = +++)
4  169 (RPFSVSSISQL; listed as Homo sapiens) [compound 169]  Peptide exchange  ++++ (>75% = ++++)
5  265 (FPRKPYEGRV; listed as Homo sapiens) [compound 265]  Peptide exchange     +++ (>50 = +++)

Data point: 171 (LPLGGHKSL; listed as Homo sapiens) [compound 171] ; Peptide exchange = +++ (>50 = +++)

Data point: 151 (QPTWNTQTRL; listed as Homo sapiens) [compound 151] ; Peptide exchange = ++++ (>75% = ++++)

Data point: 356 (RPFLRLPSL; listed as Homo sapiens) [compound 356] ; Peptide exchange = +++ (>50 = +++)

Data point: 455 (FPVQATIDF; listed as Homo sapiens) [compound 455] ; Peptide exchange = ++++ (>75% = ++++)

Data point: 280 (LPRAFLQSL; listed as Homo sapiens) [compound 280] ; Peptide exchange = ++++ (>75% = ++++)

Data point: 215 (IPVAIKEL; listed as Homo sapiens) [compound 215] ; Peptide exchange = ++ (>20% = ++)

Data point: 93 (SVAIAHGVF; listed as Homo sapiens) [compound 93] ; Peptide exchange = ++++ (>75% = ++++)

Data point: 281 (NPRSPPATM; listed as Homo sapiens) [compound 281] ; Peptide exchange = ++++ (>75% = ++++)

Data point: 471 (LPLLAGTLLL; listed as Homo sapiens) [compound 471] ; Peptide exchange = ++ (>20% = ++)

Data point: 290 (RPTHPLRSF; listed as Homo sapiens) [compound 290] ; Peptide exchange = ++++ (>75% = ++++)

Data point: 449 (RPKTSVNLISSL; listed as Homo sapiens) [compound 449] ; Peptide exchange = ++++ (>75% = ++++)

Data point: 464 (VPFVPRTSV; listed as Homo sapiens) [compound 464] ; Peptide exchange = +++ (>50 = +++)

---

SYSTEM: HLA-B*07 (Homo sapiens, UniProt P01889)
MEASUREMENT PROTOCOL: MHC binding assay (UV-ligand exchange, ELISA of stabilized MHC complexes)
ASSAY CONDITIONS: peptide exchange yield on HLA-B*07, UV-ligand exchange
ENDPOINT NAME: Peptide exchange

Known results for substances:
>>> print(df.to_string())
                                  substance     endpoint_name  experimental_value
0  379 (GPRQVLFPL; listed as Homo sapiens) [compound 379]  Peptide exchange  ++++ (>75% = ++++)
1  228 (RPTAASQSRAL; listed as Homo sapiens) [compound 228]  Peptide exchange     +++ (>50 = +++)
2  164 (RAAGRRLQL; listed as Homo sapiens) [compound 164]  Peptide exchange  ++++ (>75% = ++++)
3  481 (SPARALLLALA; listed as Homo sapiens) [compound 481]  Peptide exchange     +++ (>50 = +++)
4  183 (VPRRPARAL; listed as Homo sapiens) [compound 183]  Peptide exchange     +++ (>50 = +++)
5  67 (VPVSRPVL; listed as Homo sapiens) [compound 67]  Peptide exchange  ++++ (>75% = ++++)

Let's switch to this substance now.
Data point: 106 (APFHIDRLF; listed as Homo sapiens) [compound 106] ; Peptide exchange = +++ (>50 = +++)

---

SYSTEM: HLA-B*07 (Homo sapiens, UniProt P01889)
MEASUREMENT PROTOCOL: MHC binding assay (UV-ligand exchange, ELISA of stabilized MHC complexes)
ASSAY CONDITIONS: peptide exchange yield on HLA-B*07, UV-ligand exchange
ENDPOINT NAME: Peptide exchange

Known results for substances:
>>> df
                                  substance  experimental_value
0  381 (APRPRLLLL; listed as Homo sapiens) [compound 381]     +++ (>50 = +++)
1  486 (TPTRPLPSA; listed as Homo sapiens) [compound 486]      ++ (>20% = ++)
2  238 (LPRAGGAFLM; listed as Homo sapiens) [compound 238]  ++++ (>75% = ++++)
3  327 (GPRTTQSSVL; listed as Homo sapiens) [compound 327]  ++++ (>75% = ++++)
4  298 (RVLLRWISL; listed as Homo sapiens) [compound 298]     +++ (>50 = +++)

Data point: 154 (RPPPSRRAVL; listed as Homo sapiens) [compound 154] ; Peptide exchange = +++ (>50 = +++)

Data point: 264 (APRPGNWIL; listed as Homo sapiens) [compound 264] ; Peptide exchange = +++ (>50 = +++)

Data point: 201 (LPIARVLTV; listed as Homo sapiens) [compound 201] ; Peptide exchange = ++++ (>75% = ++++)

Data point: 182 (RPLPVSPARAL; listed as Homo sapiens) [compound 182] ; Peptide exchange = +++ (>50 = +++)

Data point: 269 (FTVSSSSAM; listed as Homo sapiens) [compound 269] ; Peptide exchange = ++ (>20% = ++)

Data point: 465 (VPKSLPYVL; listed as Homo sapiens) [compound 465] ; Peptide exchange = ++++ (>75% = ++++)

Data point: 223 (KAHVRIEL; listed as Homo sapiens) [compound 223] ; Peptide exchange = ++ (>20% = ++)
